Ref: ChEMBL document CHEMBL1817560

Molecular target: Phosphatidylinositol 4,5-bisphosphate 3-kinase catalytic subunit alpha isoform (Homo sapiens)
Assay: Inhibition of PI3Kalpha expressed in Escherichia coli or baculovirus-infected insect cells using gamma-[33P]ATP at 400 uM by scintillation proximity assay
MEASURE_NAME: inhibition (%)

Cc1ccc(NC(=O)Nc2cc(C(C)(C)C)nn2-c2ccccc2)cc1; 27

a: c1cnc2[nH]ccc2c1
b: Nc1n[nH]c2ncccc12
Query block: Looking only at measured inhibition, which entry is lower, a or b ? # reply format: chosen label
Result block: a

A: Nc1ccc2ncc(-c3ccccc3)n2n1
B: O=C(Nc1ccccc1)Nc1cccc(C(F)(F)F)c1
Query block: Sort A and B by inhibition descending and give the first. Lab note: record the label of whichever item you select.
Result block: A
(A: 86%, B: 10%)
